System: MAP3K4;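 further: KINOMEscan kinase panel screen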
CONDITION_NOTES: concentration: 1 μM,replicates: in singlicate; n = 1

COMPOUND: Nc1nc(Nc2ccccc2)cc(-c2ccc3c(N)n[nH]c3c2)n1
VALUE_UNITS: %
%Inh: 0
//
COMPOUND: CC(C)N1C(=O)Cc2cc(Nc3ncc(C(F)(F)F)c(NCc4cccc(S(C)(=O)=O)c4)n3)ccc21
VALUE_UNITS: %
%Inh: 2
//
COMPOUND: Cl.Cl.NC[C@H](CC1CCCCC1)NC(=O)c1cc(Br)c(-c2ccnc3[nH]ccc23)s1
VALUE_UNITS: %
%Inh: 4
//
COMPOUND: CCN(CC)CCCCNc1ncc2cc(-c3c(Cl)cccc3Cl)c(NC(=O)NC(C)(C)C)nc2n1
VALUE_UNITS: %
%Inh: 71
//
COMPOUND: Cl.Cl.Nc1nc(-c2ccc3c(N)n[nH]c3c2)cc(N2CCCC(NC(=O)c3ccccc3)C2)n1 (stereo not shown)
VALUE_UNITS: %
%Inh: 29
//
COMPOUND: O=C(NCCCN1CCOC1=O)c1cnc(NCc2cc(Cl)ccc2Cl)nc1NC1CCCC1
VALUE_UNITS: %
%Inh: 14
//
COMPOUND: Cc1ccc(-n2nc(C(C)(C)C)cc2NC(=O)Nc2ccc(OCCN3CCOCC3)c3ccccc23)cc1
VALUE_UNITS: %
%Inh: 30
